experimental.target: T1, CLDN6 endogenously expressed by human cancer cell lines (ARK2, OVCA429) (human, UniProt P56747 1-220)
T1 construct: Untagged endogenous protein; also called Endogenous CLDN6+
T1 sequence: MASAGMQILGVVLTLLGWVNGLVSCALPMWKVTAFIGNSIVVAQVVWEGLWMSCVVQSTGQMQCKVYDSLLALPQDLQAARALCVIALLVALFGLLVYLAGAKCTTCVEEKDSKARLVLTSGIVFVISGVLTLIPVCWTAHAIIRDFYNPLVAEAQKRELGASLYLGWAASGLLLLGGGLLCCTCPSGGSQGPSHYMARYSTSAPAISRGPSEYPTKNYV
assay.comment: FACS, AF647-labelled mAb, ARK2 cells
endpoint: EC50 (nM)
The response must be a number in nM with no trailing unit.

Observe how each entry below is paired with its result.
AB18 (antibody, V domains shown, Labelled with Alexa Fluor 647 NHS ester for FACS) VH: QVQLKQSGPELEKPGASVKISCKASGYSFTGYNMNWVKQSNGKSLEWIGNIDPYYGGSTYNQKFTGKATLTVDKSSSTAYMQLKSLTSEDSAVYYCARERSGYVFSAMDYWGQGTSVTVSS VL: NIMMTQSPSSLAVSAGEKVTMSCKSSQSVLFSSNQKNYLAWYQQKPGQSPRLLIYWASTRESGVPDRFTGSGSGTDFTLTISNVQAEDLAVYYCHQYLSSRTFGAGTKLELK; 1350
AB4 (antibody, V domains shown, Labelled with Alexa Fluor 647 for FACS and with Texas Red-X in the internalization assay) VH: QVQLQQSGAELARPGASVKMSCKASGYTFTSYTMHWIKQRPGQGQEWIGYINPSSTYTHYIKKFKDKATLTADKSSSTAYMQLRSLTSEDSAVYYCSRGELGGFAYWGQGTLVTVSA VL: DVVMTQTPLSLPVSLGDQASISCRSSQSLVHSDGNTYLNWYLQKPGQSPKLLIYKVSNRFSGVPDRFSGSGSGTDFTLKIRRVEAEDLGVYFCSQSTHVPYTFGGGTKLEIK; 48
AB3 (antibody, V domains shown, Labelled with Alexa Fluor 647 for FACS and with Texas Red-X in the internalization assay) VH: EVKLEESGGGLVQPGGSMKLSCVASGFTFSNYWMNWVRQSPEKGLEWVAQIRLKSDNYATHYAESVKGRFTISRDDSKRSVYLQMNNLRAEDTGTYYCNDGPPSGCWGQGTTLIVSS VL: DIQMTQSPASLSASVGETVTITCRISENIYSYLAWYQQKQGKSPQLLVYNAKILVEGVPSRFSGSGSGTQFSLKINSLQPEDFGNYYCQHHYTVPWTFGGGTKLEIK; 1650

Summary for this binder, AB14 (antibody, V domains shown, Labelled with Alexa Fluor 647 NHS ester for FACS) VH: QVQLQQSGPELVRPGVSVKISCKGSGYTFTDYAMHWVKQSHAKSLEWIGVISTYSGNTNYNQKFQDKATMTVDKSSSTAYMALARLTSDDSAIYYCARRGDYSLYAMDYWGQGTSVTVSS VL: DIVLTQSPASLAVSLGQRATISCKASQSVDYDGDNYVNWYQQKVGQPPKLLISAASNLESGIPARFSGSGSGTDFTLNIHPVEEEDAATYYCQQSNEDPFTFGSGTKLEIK : EC50 is 1300
